test system: MS2 coat protein; test: apparent KD of MS2 coat protein; higher = weaker reporter binding; details: Eterna round: R107; input ligand: arginine 13.2 mM
Measured apparent KD of MS2 coat protein by item
Reply numerically in nM, unit not repeated.

Worked cases, apparent KD of MS2 coat protein given:
UGGGUACCGACGGCCGCCACUGACUAUAGACAUGAGGAUCACCCAUGUAGAGAUCCUAGACUACCCAGGACCGGGUCUGGUGCUA [Exclusion Tryptophane B GF6]: 61
AACGUAUACAGAAGGAGCGUGAUUUAUAAUUCUUUAAAAUAUACAUGAGGAUCACCCAUGUCACAGGUAGGUCGCUGUAUUCGUA [JR_ExcArginiB_Sub024]: 29.8
UUGGCAGCAUGGGUGGCUGCCAAGGCUGAUACCAGCCACGAAAGUGGCCCUUGGCAGCAGCAAACAUGAGGAUCACCCAUGUUAA [(T)''-(M)'-(T)'-(Theo)-(Ms2)_Design3]: 87.2
GUUAUAUACUCGGCCGCCACUGAGAGAGUCAUGUAAACAUGAGGAUCACCCAUGUAAUAUAUAUACAGGACCGGGAGUAUAGUAA [4.D]: 19.8
UCACAUGAGGAUCACCCAUGUACAACUGAAGGAGCGAGACAAAACUCAGGUAGGUCGCAGAAUAAACAAUAGCAUACGACAUGGG [Exclusion Arginine A GF 19]: 44.6

Give MS2 coat protein apparent KD of MS2 coat protein for the following sequence: UGAUCCUGCAGGGAUACCAGCGCCGCUAGAUAACUAUGCACAUGAGGAUCACCCAUGUAACGCCCUUGGCAGCCCAGCUAAAGGG [Same State Theophylline B GF22]
23.1

###

Measured apparent KD of MS2 coat protein by item
tested on: MS2 coat protein; assay: apparent KD of MS2 coat protein; designed switch direction (-1 OFF switch, 1 ON switch): 1; higher = weaker reporter binding; conditions: input ligand: none
Reply numerically in nM, unit not repeated.

ACAUGAGAGAUAGGAUAUGUUGUACCUACAUGUGACAUGAGGAUCACCCAUGUGGUAAGUAUGAGGCAGAAGGAUCAGAUAUGU [Equivalence 41 - Jieux - Same State NG 2] (Eterna round: R96, puzzle: Same State NG 2): 88.1
GGUCCGGCCUGAGCUGGACCGGAGCAUGUACAUGAGGAUCACCCAUGUCAUGUACAGGCUUCUUGCUCGUCUUGUUG [JL-shm-2.16 JL Mod] (Eterna round: R96, puzzle: Sensor for hsa-mir-208a): 130
GCUAGGAUAUGACGAGGAUCACCCGUUAGAAGGAGCGAAGGCUAGGAUAUGACGAGGAUCACCCGUUAGAAGGAGCUGUACUCU [pwkr ssNG3 DX 2xF5 +2xFMN.10] (Eterna round: R96, puzzle: Same State NG 3): 80.3
AGCCGAGACACAGGAUAUAGAUGUCUACAUGAGGAUCACCCAUGUAGCAACACGUGGUAGUGAUUCUAGAAGGGUGCUCGGCGC [Omei SS(NG)2 Cv10] (Eterna round: R96, puzzle: Same State NG 2): 28.7
CUGAGCAAUCAAGGAUAUCACGUCGAUUAGACGUGAGAAGGUGAUCAUAACAUGAGGAUCACCCAUGUAUUACAUGAAGCUCAG [SSNG1/1-A2] (Eterna round: R96, puzzle: Same State NG 1): 740
GCGUGAGAGAUAGGAUAUCGUGUACCUACAUGUGACAUGAGGAUCACCCAUGUGGUAAGUAUGAGCGAGAAGGAUCCGAUAUGU [salish99_SSNG2_r04_1003] (Eterna round: R96, puzzle: Same State NG 2): 63.5

Tell me its apparent KD of MS2 coat protein given UGGCUCAGACGAGGAUAUAUGCGAUCACAUGAGGAUCACCCAUGUCUCGAGCUUCGGCUCGAGGCAUAGAAGGCGUCUGAGCCU [SSNG2/4-A3] (Eterna round: R96, puzzle: Same State NG 2) as the entry.
27.7

Tell me its apparent KD of MS2 coat protein given GAGUGGUGGAGAGGAUAUACAUUGAUAAUCACUGUAGAAGGUUCUAACAUGAGGAUCACCCAUGUAGGACUAUUCCUGAGAGUU [Parity 53 - Jieux - Same State NG 1] (Eterna round: R96, puzzle: Same State NG 1) as the entry.
12

Tell me its apparent KD of MS2 coat protein given AGCCUGAGUCGAGGAUAUUAUGGAUCCUCUAAUACAUGAGGAUCACCCAUGUAAUUAAUUAUACAUGAGAAGGCGACUCAGGCA [SSNG2/12-A3] (Eterna round: R96, puzzle: Same State NG 2) as the entry.
25.5

###

tested on: MS2 coat protein; assay: apparent KD of MS2 coat protein; designed switch direction (-1 OFF switch, 1 ON switch): -1; higher = weaker reporter binding; conditions: input ligand: none
readout.name: apparent KD of MS2 coat protein
Write the numeric value and follow it with the unit.

Worked cases, apparent KD of MS2 coat protein given:
UAUGUGUCAGGAUAUCGAUUAGAACAGAAUUUAACAAUAGUCGAGAAGGGACAUGAGGAUCACCCAUGUUCAUC [JR_Ex4_Sub022] (Eterna round: R97, puzzle: Exclusion 4): 18.9 nM
AUUGUGUUAGGAUAUAACAACUACUAAUAAAUUAGUAGUUGUUAGAAGGAACAUGAGGAUCACCCAUGUAUGAU [-21.1, -20.3 kcal, A 38%] (Eterna round: R97, puzzle: Exclusion 4): 29.4 nM

Tell me its apparent KD of MS2 coat protein given CUUUCGUGAGGAUAUGAAGCUUCGAUCGUGAGAUCGAGGCUACAGAAGGCACAUGAGGAUCACCCAUGUUCCUC [salish99_ex4_r4_217] (Eterna round: R97, puzzle: Exclusion 4) as the entry.
31.9 nM

###

system: MS2 coat protein; assay: apparent KD of MS2 coat protein, switch ON state; designed switch direction (-1 OFF switch, 1 ON switch): 1; higher = weaker reporter binding; settings: FMN input: 0 or 200 uM; Eterna round: R93 (includes R88 designs)
If the reported apparent KD of MS2 coat protein equals or exceeds 20 nM, assign true (1). If not, assign false (0).

Below are worked cases with known answers.
AUAAAAGAAGCGAAGGAUAUCCAAAGGACCACAUGAGGAUCACCCAUGUAAAGAAAGAAAAAAUGGGAGAAGGUCGCAAAGAAUA [73%, More Fisker Same State 2, D3, 7]: true (1)
AUAACAACGUAUGAGGAUAUCCUUAAUAAAACAUGAGGAUCACCCAUGUGAAUAAAAUAACAAUUGGAGAAGGCAUACGUACAAU [SS 2 M 52]: false (0)

In plain terms: is recorded apparent KD of MS2 coat protein at least 20 nM for CGAAAGGAGAGAGAGGAUAUCCAAAGGAAAACAUGAGGAUCACCCAUGUAGAAGGUAGGAGAUUGGGAGAAGGCUCAAGAUAGAG [salish99-ss2-145] ?
true (1)

In plain terms: is recorded apparent KD of MS2 coat protein at least 20 nM for UAAAAACAUGAGGAUCACCCAUGUAGAAACAUGGGAGGAUAUACAAAGACGAAAGUCAAAGUAGAAGGCCUAAAAU [Mat - Same State 1 - Mod - D169] ?
true (1)

In plain terms: is recorded apparent KD of MS2 coat protein at least 20 nM for AAUAGACAUGAGGAUCACCCAUGUAGAAUUAUGGGAGGAUAUACAAAGACGAGAGUCAGAGUAGAAGGCCUAGGAU [salish99-ss1-149] ?
true (1)

In plain terms: is recorded apparent KD of MS2 coat protein at least 20 nM for AAGAUACAUGAGGAUCACCCAUGUCACCUCACACGAGGAUAUCUGUGCAGUACUCAGUACGGAGAAGGCGUGGAAA [Mat - Same State 1 - Hyphema mod - D98] ?
true (1)

###

Measured apparent KD of MS2 coat protein by item
tested on: MS2 coat protein; test: apparent KD of MS2 coat protein; designed switch direction (-1 OFF switch, 1 ON switch): 1; higher = weaker reporter binding; settings: Eterna round: R95; input ligand: FMN 200 uM

Worked cases, apparent KD of MS2 coat protein given:
UACAAUCUAUCUGAGGAUAUCAUGAAUAAAACAUGAGGAUCACCCAUGUGCAGGAUAACUGCAAAUGAGAAGGCAGAUAGAUUGU [Mat - Same State 2 - Mod - D8] (puzzle: Same State 2): 13.5 nM
GGAGCCGGCACUGAGGAUAUUCAUAUUAAAACAUGAGGAUCACCCAUGUAGGCCAGAAGGCCUUGGGAGAAGGCAGGUCGGCUCA [Mat - Same State 2 - Mod of UCT - D59] (puzzle: Same State 2): 20.5 nM
AUAAAACAUGAGGAUCACCCAUGUCAACAAAGUCGAGGAUAUGGGCAAAUAAAAUUAGAACCAGAAGGCGAAUAAU [salish99_ss1_r3_020] (puzzle: Same State 1): 34.4 nM
AUAAGGCAAGCUUUUUUCUCGUAGUGUAAACAUGAGGAUCACCCAUGUGCCCACCCUGGAUCUUUGAAUCGCAGAAC [Dianancete] (puzzle: Sensor for hsa-mir-208a): 26.7 nM
GCUUCACAUGAGGAUCACCCAUGUCGUCGGAGUCGAGGAUAUGGUAACUGUAAACAGUUGCCAGAAGGCGAGGAGC [SS1 - Son of Teenbexe v10] (puzzle: Same State 1): 23.2 nM

Tell me its apparent KD of MS2 coat protein given GUCCGGCUGCCACAGGAUAUACGUGGAUCGACAUGAGGAUCACCCAUGUAUAUCCUAAUAAUUGCGUAGAAGGGUGGUCAGCCGG [Dionbe] (puzzle: Same State 2) as the entry.
78.3 nM

Tell me its apparent KD of MS2 coat protein given AGAGCCGGCACUGAGGAUAUUCAUAUUAAAACAUGAGGAUCACCCAUGUAGGCCAGAAGGCCUUGGGAGAAGGCAGGUCGGCUCG [Mat - Same State 2 - Mod of UCT - D57] (puzzle: Same State 2) as the entry.
23.5 nM

Tell me its apparent KD of MS2 coat protein given AGUCCAGCGAAAGCUGGACAAAAGCAUGUACAUGAGGAUCACCCAUGUUCAUGUACAAGCUUUUUGUUCGUCUUAAA [JL mod - D95 - 14] (puzzle: Sensor for hsa-mir-208a) as the entry.
314 nM

Tell me its apparent KD of MS2 coat protein given CGUCCAGCCUGAGCUGGACAAAAGCAUGUACAUGAGGAUCACCCAUGUUCAUGUACAAGCUUUUUGCUCGUCUUACG [salish99_208a_r3_093x] (puzzle: Sensor for hsa-mir-208a) as the entry.
507 nM

Tell me its apparent KD of MS2 coat protein given AGAUAGUGUGGAAAGGAUAUACUGUUGAGGACAUGAGGAUCACCCAUGUGGUAGAGGAGGUAAGGGUAGAAGGUUCGGGAUUGGU [JR_SS@_Sub019] (puzzle: Same State 2) as the entry.
32.6 nM
